study_target: N-type calcium channel (NTCC) (Homo sapiens)
Sequence (Q00975 whole entry): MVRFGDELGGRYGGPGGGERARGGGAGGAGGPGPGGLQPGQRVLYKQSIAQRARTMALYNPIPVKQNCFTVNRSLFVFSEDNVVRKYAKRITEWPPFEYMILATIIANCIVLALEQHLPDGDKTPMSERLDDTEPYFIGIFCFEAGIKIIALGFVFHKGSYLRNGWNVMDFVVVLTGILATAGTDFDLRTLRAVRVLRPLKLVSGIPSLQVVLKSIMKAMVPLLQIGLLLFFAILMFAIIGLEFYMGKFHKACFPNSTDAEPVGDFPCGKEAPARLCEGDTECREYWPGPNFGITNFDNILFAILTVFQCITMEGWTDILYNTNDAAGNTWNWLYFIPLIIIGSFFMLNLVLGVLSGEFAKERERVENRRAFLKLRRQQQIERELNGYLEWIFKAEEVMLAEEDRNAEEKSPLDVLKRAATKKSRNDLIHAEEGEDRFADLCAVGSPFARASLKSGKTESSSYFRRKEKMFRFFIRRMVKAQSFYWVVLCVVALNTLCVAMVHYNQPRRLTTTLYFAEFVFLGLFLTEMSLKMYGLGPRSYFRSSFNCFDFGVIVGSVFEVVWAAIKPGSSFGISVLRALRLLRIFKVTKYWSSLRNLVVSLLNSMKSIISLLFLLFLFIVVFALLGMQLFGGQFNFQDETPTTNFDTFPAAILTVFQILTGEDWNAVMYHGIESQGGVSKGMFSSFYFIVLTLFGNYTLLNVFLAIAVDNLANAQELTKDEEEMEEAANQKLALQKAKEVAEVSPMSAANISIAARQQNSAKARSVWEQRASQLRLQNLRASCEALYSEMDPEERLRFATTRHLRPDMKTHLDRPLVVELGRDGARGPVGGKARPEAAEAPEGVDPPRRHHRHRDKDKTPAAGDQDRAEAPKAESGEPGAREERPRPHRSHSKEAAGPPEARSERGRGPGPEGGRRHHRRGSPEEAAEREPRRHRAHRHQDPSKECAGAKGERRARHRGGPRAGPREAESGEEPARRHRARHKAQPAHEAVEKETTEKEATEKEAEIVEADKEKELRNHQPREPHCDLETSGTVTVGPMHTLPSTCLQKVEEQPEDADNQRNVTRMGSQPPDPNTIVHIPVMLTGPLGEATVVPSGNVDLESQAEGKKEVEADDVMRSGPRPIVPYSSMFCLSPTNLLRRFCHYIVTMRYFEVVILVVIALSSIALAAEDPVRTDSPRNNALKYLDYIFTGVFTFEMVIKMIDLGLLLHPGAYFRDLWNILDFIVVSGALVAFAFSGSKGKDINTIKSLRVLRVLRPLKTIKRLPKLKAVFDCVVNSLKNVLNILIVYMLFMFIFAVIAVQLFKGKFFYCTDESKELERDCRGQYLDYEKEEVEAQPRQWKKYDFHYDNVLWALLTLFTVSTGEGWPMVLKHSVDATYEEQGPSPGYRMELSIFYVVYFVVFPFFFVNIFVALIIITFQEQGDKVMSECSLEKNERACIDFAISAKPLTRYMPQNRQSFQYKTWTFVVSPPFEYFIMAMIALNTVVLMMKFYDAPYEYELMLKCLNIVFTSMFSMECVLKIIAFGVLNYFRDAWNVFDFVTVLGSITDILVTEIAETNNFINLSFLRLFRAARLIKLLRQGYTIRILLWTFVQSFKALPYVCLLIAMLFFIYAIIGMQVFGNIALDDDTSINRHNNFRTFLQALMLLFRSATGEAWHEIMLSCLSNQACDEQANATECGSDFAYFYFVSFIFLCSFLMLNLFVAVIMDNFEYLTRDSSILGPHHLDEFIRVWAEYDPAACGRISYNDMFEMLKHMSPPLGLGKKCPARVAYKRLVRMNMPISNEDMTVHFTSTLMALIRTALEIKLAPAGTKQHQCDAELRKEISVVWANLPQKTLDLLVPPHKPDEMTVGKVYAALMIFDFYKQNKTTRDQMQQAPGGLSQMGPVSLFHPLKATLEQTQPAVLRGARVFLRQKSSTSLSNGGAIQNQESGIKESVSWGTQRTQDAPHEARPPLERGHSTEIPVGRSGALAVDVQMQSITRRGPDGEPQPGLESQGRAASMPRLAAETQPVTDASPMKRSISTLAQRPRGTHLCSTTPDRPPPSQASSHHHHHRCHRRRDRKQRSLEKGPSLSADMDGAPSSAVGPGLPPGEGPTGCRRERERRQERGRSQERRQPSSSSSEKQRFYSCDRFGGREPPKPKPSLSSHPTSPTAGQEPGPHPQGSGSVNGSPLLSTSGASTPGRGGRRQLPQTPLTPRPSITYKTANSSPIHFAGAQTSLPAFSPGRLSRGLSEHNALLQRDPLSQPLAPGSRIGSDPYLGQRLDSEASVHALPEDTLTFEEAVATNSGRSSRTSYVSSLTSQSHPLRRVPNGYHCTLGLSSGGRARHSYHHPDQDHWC
Sequence (P54289 25-956 partner limits assumed): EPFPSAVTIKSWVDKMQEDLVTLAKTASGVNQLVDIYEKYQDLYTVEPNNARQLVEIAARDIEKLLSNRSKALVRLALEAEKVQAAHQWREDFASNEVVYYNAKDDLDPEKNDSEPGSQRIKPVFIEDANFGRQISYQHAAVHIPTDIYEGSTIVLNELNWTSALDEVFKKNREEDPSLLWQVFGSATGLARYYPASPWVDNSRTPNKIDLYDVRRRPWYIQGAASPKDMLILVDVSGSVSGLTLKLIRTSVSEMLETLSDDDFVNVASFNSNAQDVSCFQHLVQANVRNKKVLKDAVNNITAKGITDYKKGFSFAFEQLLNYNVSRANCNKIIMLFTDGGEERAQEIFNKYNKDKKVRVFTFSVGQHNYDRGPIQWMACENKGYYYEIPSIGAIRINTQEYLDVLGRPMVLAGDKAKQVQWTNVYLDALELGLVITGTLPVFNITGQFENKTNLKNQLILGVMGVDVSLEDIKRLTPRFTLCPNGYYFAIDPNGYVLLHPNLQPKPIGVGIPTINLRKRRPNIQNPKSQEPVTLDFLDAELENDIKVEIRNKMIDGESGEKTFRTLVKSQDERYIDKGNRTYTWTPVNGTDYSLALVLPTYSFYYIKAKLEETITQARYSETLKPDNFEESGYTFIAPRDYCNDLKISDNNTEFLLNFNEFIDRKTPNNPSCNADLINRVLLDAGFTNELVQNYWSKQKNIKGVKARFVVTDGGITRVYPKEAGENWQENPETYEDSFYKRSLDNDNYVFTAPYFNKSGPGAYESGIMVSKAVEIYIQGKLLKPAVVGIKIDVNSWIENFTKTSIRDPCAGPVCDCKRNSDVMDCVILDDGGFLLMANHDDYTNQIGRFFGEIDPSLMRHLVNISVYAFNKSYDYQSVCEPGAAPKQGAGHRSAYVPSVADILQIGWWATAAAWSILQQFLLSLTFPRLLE
Sequence (P54289 957-1103 partner limits assumed): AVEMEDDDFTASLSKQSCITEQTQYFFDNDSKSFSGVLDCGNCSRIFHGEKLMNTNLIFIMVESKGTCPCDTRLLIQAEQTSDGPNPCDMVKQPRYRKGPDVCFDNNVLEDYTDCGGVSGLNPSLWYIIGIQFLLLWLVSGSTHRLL
Sequence (Q02641 whole entry partner): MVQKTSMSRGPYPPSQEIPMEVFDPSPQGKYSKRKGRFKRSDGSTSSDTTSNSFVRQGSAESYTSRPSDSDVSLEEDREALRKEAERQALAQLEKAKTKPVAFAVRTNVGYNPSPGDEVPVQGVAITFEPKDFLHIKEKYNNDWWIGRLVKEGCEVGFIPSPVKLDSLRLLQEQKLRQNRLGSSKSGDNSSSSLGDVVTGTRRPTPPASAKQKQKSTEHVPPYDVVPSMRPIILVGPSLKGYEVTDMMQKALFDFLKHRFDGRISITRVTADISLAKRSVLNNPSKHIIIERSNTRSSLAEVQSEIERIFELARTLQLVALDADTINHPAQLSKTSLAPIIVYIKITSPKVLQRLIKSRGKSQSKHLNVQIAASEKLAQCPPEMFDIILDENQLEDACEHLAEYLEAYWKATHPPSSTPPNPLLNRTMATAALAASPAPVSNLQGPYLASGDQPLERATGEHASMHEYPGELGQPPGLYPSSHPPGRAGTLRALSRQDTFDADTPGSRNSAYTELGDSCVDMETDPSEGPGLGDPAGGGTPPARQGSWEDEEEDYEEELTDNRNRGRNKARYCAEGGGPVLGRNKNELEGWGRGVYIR
measurement_description: FLIPR calcium mobilization assay for N-type calcium channel (differentiated IMR32 cells)
Type: cell-based
Design: endogenous in cells; host or cells: IMR32 cells (ATCC), differentiated 8 days with dibutyryl cAMP and bromodeoxyuridine
assay_setup: calcium mobilization in vitro assay; N-type calcium channel block
pIC50: −log10 of the molar value.
property_label: pIC50

A. O=C1NC2(CCN(CCCC(c3ccc(F)cc3)c3ccc(F)cc3)CC2)c2ccccc21
B. O=C(CCC(c1ccc(F)cc1)c1ccc(F)cc1)N1CCC2(CCc3ccccc32)CC1
C. CC(C)CC(C(=O)N1CCC2(CC1)OC(=O)c1ccccc12)N(C)C(=O)OC(C)(C)C (stereo not drawn)
D. O=C1OC2(CCN(C(=O)CCC(c3ccc(F)cc3)c3ccc(F)cc3)CC2)c2ccccc21
Task item: Please put the 4 compounds above in a list ordered by falling pIC50. Response field: labels, in requested order.
Reply: A, D, B, C
(A: 6.47, D: 6.16, B: 5.31, C: 4.98)
